Give pKd for every item shown.
Target: (NVDP)3(NANP)2 (Plasmodium falciparum)
Assay: SPR, antibody on chip
Answers are plain numbers, as −log10 of the molar value.

AB-007057 (antibody, V domains shown) VH: QMQLVESGGGVVQPGRSLRLSCTASGFTFSTYAMHWVRQSPGQGLQWVAVISYHSTNKYYEDSVRGRFTISRDNSKNTLYLQMNSLRAEDTAVYYCARDGYHSSFFDFWGQGTLVTVSS VL: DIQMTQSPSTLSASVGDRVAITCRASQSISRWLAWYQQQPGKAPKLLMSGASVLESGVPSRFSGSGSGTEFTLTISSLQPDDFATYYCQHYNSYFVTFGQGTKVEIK | 5.04
AB-007061 (antibody, V domains shown) VH: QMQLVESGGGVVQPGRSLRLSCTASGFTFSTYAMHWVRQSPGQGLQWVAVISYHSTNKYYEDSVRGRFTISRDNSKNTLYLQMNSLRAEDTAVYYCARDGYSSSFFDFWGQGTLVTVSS VL: DIQMTQSPSTLSASVGDRVAITCRASQSIDRWLAWYQQQPGKAPKLLMSGASVLESGVPSRFSGSGSGTEFTLTISSLQPDDFATYYCQHYNSYFVTFGQGTKVEIK | 5.40

Please turn your attention to the following entry.
Answer with the recorded pKd of AB-007033 (antibody, V domains shown) VH: QMQLVESGGGVVQPGRSLRLSCAASGFTFSTYAMHWVRQAPGQGLEWVAVISYHSTNKYYADSVRGRFTISRDNSKNTLYLQMNSLRAEDTAVYYCARDGYSSSFFDFWGQGTLVTVSS VL: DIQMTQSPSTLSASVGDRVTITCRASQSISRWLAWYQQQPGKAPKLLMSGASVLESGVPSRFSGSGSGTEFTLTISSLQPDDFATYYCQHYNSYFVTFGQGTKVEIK only. 5.57

Source listed as patent US20220195023A1.
